Target: GlyT1 (Homo sapiens)
Construct: expressed in transfected cells
Sequence (P48067 1-706): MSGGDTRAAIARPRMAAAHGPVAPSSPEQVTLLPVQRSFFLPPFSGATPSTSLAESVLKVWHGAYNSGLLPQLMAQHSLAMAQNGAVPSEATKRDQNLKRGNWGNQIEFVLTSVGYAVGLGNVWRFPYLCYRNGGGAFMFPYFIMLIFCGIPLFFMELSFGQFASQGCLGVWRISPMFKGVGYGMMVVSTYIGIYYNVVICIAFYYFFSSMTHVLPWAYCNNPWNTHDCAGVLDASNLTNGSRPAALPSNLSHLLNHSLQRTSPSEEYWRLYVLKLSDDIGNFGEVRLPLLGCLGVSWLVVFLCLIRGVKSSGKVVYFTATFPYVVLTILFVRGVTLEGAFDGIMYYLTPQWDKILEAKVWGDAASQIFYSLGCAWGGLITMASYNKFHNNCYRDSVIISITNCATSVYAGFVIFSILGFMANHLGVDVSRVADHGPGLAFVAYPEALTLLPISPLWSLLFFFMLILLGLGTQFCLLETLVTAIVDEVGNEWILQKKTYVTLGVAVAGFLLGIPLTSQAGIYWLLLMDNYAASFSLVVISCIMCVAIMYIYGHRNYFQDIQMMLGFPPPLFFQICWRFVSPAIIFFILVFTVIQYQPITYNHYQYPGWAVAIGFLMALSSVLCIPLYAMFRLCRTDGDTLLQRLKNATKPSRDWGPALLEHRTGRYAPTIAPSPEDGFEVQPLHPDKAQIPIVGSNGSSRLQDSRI
Assay: Glycine Transporter 1 (GlyT1) uptake assay, scintillation proximity assay of [14C]-glycine uptake
Type: cell-based
Details: SPA, four parameter logistic fit, read-out: GlyT1 (pIC50) (converted)
Value Kind: IC50

compound="CC(C)S(=O)(=O)c1ccc(O[C@@H](C)C(F)(F)F)c(C(=O)N2Cc3cn(-c4ccccc4)nc3C2)c1 [Example 90]" system="GlyT1 (Homo sapiens)" value_kind=IC50 value_reported="100 to 1000 nM"
compound="Cc1c(F)ccc(-n2cc3c(n2)CN(C(=O)c2cc(S(C)(=O)=O)ccc2OCC(C)(C)C)C3)c1F [Example 64]" system="GlyT1 (Homo sapiens)" value_kind=IC50 value_reported="< 100 nM"
compound="CCS(=O)(=O)c1ccc(O[C@@H](C)C(F)(F)F)c(C(=O)N2Cc3cn(-c4cccc(F)c4Cl)nc3C2)c1 [Example 151]" system="GlyT1 (Homo sapiens)" value_kind=IC50 value_reported="< 100 nM"
compound="C[C@H](Oc1ccc(S(C)(=O)=O)cc1C(=O)N1Cc2cn(-c3cccc(C(F)(F)F)c3)nc2C1)C(F)(F)F [Example 44]" system="GlyT1 (Homo sapiens)" value_kind=IC50 value_reported="< 100 nM"

* * *

Target: GlyT1 (Homo sapiens, UniProt P48067)
Construct: expressed in transfected cells
Experiment: Glycine Transporter 1 (GlyT1) uptake assay, scintillation proximity assay of [14C]-glycine uptake
Format: cell-based
Details: SPA, four parameter logistic fit, read-out: GlyT1 (pIC50) (converted)
Protocol: Glycine Transporter 1 (GlyT1) Uptake Assay Plates were then read on a MicroBeta plate counter (Perkin Elmer). Dose-response data for tested compounds were analyzed and curves were fit using a four parameter logistic fit to determine IC50 values. […]
Value Kind: IC50

molecule="COc1cccc(-n2cc3c(n2)CN(C(=O)c2c(O[C@@H](C)C(F)(F)F)ccc(C#N)c2OC)C3)n1 [Example 275]" value_reported="< 100 nM"
molecule="N#Cc1ccc(OCC2CC2)c(C(=O)N2CCc3nn(-c4ccccc4)cc3C2)c1Cl [Example 504]" value_reported="1000 to 10000 nM"
molecule="CC(Oc1ccc(N2CCOC2=O)cc1C(=O)N1CCc2nn(-c3ccccc3)cc2C1)C(F)(F)F (stereo not drawn) [Example 172]" value_reported="1000 to 10000 nM"
molecule="CS(=O)(=O)c1ccc(-c2ccc(C(F)(F)F)nc2)c(C(=O)N2Cc3cn(-c4ccccc4F)nc3C2)c1 [Example 547]" value_reported="100 to 1000 nM"
molecule="COc1c(C#N)ccc(OC(C)CF)c1C(=O)N1Cc2cn(-c3ccc(F)cc3)nc2C1 (stereo not drawn) [Example 517]" value_reported="< 100 nM"
molecule="COc1c(C#N)ccc(C2(F)CCOCC2)c1C(=O)N1Cc2cn(-c3ccc(F)cc3)nc2C1 [Example 27]" value_reported="< 100 nM"
